The compounds listed here are annotated with their IC50.
# assayed system: CXCR3 (Homo sapiens)
# measurement notes: CXCR3 Ca2+ mobilization (FLIPR), stable hCXCR3-CHO cell line, I-TAC stimulated
# Format: cell-based
# Design: host or cells: CHO cells stably expressing hCXCR3
# recorded conditions: hCXCR3-CHO cells, I-TAC 100 nM stimulated Ca2+ response; read-out: Ca-ITAC
Returns: string containing the number followed by the unit.

Input line: Note IC50 for the compound shown: N#Cc1ccc(S(=O)(=O)N(Cc2ccc(C(=O)N[C@@H](Cc3ccccc3)C(N)=O)cc2)Cc2ccccn2)cc1
Output line: 0.2 µM

Input line: Specify reported IC50 for the compound shown: O=C(NC(C(=O)O)c1ccc(F)c(F)c1)c1ccc(CN(Cc2ccccn2)S(=O)(=O)c2ccc(Cl)cc2)cc1 (stereo not drawn)
Output line: 0.1 µM

New cases:
Input line: Could you please provide reported IC50 for O=C(Nc1ccc(CN(Cc2ccccn2)S(=O)(=O)c2ccc(Cl)cc2)cc1)C(O)c1cccc(Cl)c1 (stereo not drawn) ? Thanks!
Output line: 1 µM

Input line: Report measured IC50; entry is CCOc1ccc(S(=O)(=O)N(Cc2ccc(Oc3ccncc3)cc2)Cc2ccccn2)cc1
Output line: 6 µM

Input line: Find the measured IC50 of O=S(=O)(c1ccc(Cl)cc1)N(Cc1ccc(-c2nnn[nH]2)cc1)Cc1ccccc1Cl and report it.
Output line: 0.415 µM

Input line: Return value of IC50 for input O=S(=O)(c1ccc(Cl)cc1)N(CCc1ccccc1)Cc1ccc(-c2nnn[nH]2)cc1 , no commentary.
Output line: 2.01 µM

Input line: # return recorded IC50 for entry O=S(=O)(c1ccc(OC(F)(F)F)cc1)N(Cc1ccccc1)Cc1ccc(-c2nnn[nH]2)cc1
Output line: 2 µM

Input line: Identify measured IC50 associated with O=C(NS(=O)(=O)C1CC1)c1ccc(CN(Cc2ccccn2)S(=O)(=O)c2ccc(Cl)cc2)cc1
Output line: 5.6 µM

Input line: Provide IC50 value for the following compound: CCOC(=O)c1ccc(CN(Cc2ccccn2)S(=O)(=O)c2ccc(OCC)cc2)cc1
Output line: 13 µM

---

# assayed system: CXCR3 (Homo sapiens, UniProt P49682)
# Sequence (P49682 whole entry): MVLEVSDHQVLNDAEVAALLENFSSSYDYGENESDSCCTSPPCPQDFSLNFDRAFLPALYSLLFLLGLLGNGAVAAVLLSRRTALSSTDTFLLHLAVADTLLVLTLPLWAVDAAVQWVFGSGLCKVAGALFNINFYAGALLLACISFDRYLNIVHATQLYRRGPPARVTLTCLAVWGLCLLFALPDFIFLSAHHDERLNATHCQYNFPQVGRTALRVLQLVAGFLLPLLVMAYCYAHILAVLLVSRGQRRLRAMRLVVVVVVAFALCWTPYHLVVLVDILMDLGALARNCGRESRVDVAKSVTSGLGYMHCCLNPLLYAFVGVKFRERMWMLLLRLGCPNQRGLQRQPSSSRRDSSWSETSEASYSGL
# measurement notes: CXCR3 Ca2+ mobilization (FLIPR), stable hCXCR3-CHO cell line, I-TAC stimulated
# Assay type: cell-based
# Design: host or cells: CHO cells stably expressing hCXCR3
# recorded conditions: hCXCR3-CHO cells, I-TAC 100 nM stimulated Ca2+ response; read-out: Ca-ITAC
readout name: IC50 (nM)
Give the quantity in nM, number only.

The cases that follow already have their IC50 on record.
Input line: Please give measured IC50 of the following entry: CCOC(=O)c1ccc(CN(Cc2cccnc2)S(=O)(=O)c2ccc(Cl)cc2)cc1
Output line: 4000

Input line: Identify IC50 associated with the molecule CCOc1ccc(S(=O)(=O)N(Cc2ccc(C(=O)O)c(F)c2)Cc2ccccn2)cc1
Output line: 2000

Input line: Output IC50 of CCOc1ccc(C2(NC(=O)c3ccc(CN(Cc4ccccn4)S(=O)(=O)c4ccc(C#N)cc4)cc3)CC2)cc1
Output line: 2500

More entries:
Input line: Find the measured IC50 of O=S(=O)(c1ccc(Cl)cc1)N(Cc1ccc(-c2nnn[nH]2)cc1)Cc1ccccc1Oc1ccc(F)cc1 and report it.
Output line: 1000

Input line: Give the measured IC50 for CC(=O)N1C[C@@H]2[C@H](C1)[C@H]2NC(=O)c1ccc(CN(Cc2ccccn2)S(=O)(=O)c2ccc(C#N)cc2)cc1
Output line: 870

Input line: Return IC50 for the following molecule: N#Cc1ccc(CN(Cc2ccccn2)S(=O)(=O)c2cccc(Cl)c2)cc1
Output line: 15000

Input line: Check the records and state IC50 for N#Cc1ccc(S(=O)(=O)N(Cc2ccc(NC(=O)C3(c4ccccc4)CC3)cc2)Cc2ccccn2)cc1
Output line: 20

Input line: Read the entry N#Cc1ccc(CN(C2CCc3cc(Cl)ccc32)S(=O)(=O)c2ccc(Cl)cc2)cc1 (centres unmarked) and write its reported IC50.
Output line: 5500

Input line: Give IC50 for O=S(=O)(c1ccc(Cl)cc1)N(Cc1ccc(-c2nnn[nH]2)cc1)Cc1ccccc1-n1cccn1
Output line: 20000

Input line: Tell me IC50 reported for O=C(NC1(c2ccccc2)CC1)c1ccc(CN(Cc2cnccn2)S(=O)(=O)c2ccc(Cl)cc2)cc1
Output line: 4000

Input line: State its IC50 for this molecule: CC(=O)OC(C(=O)Nc1ccc(CN(Cc2ccccn2)S(=O)(=O)c2ccc(Cl)cc2)cc1)c1ccccc1 (centres unmarked)
Output line: 700

Input line: Give reported IC50 value for CCOC(=O)c1ccc(CN(Cc2cccnc2)S(=O)(=O)c2ccc(OCC)cc2)cc1
Output line: 2000

Input line: Please look at this molecule and report its IC50: O=C(NC1(c2ccccc2)CC1)c1ccc(CN(Cc2ccc3cccnc3n2)S(=O)(=O)c2ccc(Cl)cc2)cc1
Output line: 10000

Input line: Input COc1ccc(S(=O)(=O)N(Cc2ccccc2)Cc2ccc(C(=O)NCc3ccccc3)cc2)cc1 , output reported IC50.
Output line: 1900

Input line: Give reported IC50 value for O=C(NC1(c2ccc(OC(F)(F)F)cc2)CC1)c1ccc(CN(Cc2ccccn2)S(=O)(=O)c2ccc(Cl)cc2)cc1
Output line: 5000

Input line: Please give the documented IC50 of O=S(=O)(c1ccc(Cl)cc1)N(CCCc1ccccc1)Cc1ccc(-c2nnn[nH]2)cc1
Output line: 1700

Input line: Provide measured IC50 value, entry: N#Cc1ccc(S(=O)(=O)N(Cc2ccc(C(=O)NCCc3cccc(Cl)c3)cc2)Cc2ccccn2)cc1
Output line: 70
